- Assay Comment: Cmax in rat at 100 mg/kg as micronized suspension after 24 hrs
- Type: ADME, organism-based
- Parameters: dose 100 mg/kg
- Setup Conditions: in vivo
Test Readout: Cmax

[[record]]
smiles = "Cc1cc2c(F)c(Oc3ncnn4cc(OC[C@@H](C)O)c(C)c34)ccc2[nH]1"
measured_value = "2050 nM"


----------
- Assay Comment: Cmax in rat at 200 mg/kg as micronized suspension after 24 hrs
- Assay type: ADME, organism-based
- Parameters: dose 200 mg/kg
- Setup Conditions: in vivo
Test Readout: Cmax (µM)

[[record]]
molecule = "Cc1cc2c(F)c(Oc3ncnn4cc(OC[C@@H](C)O)c(C)c34)ccc2[nH]1 [BRIVANIB]"
units_of_measure = "µM"
measured_value = 1.71


----------
Catalogue of Cmax values
- Assay Comment: Cmax in mice at 50 mg/kg after 4 hrs
- Assay type: ADME, organism-based
- Parameters: dose 50 mg/kg
- Setup Conditions: mouse, in vivo
Test Readout: Cmax (µM)

[[record]]
compound = "Cc1cc2c(F)c(Oc3ncnn4cc(OCCN5CCC(O)C5)c(C)c34)ccc2[nH]1 (single isomer, unassigned)"
measured_value = 3

[[record]]
compound = "Cc1cc2c(F)c(Oc3ncnn4cc(OCCC5CCN(C)CC5)c(C)c34)ccc2[nH]1"
measured_value = 0.7

[[record]]
compound = "Cc1cc2c(F)c(Oc3ncnn4cc(OCCCS(C)(=O)=O)c(C)c34)ccc2[nH]1"
measured_value = 57


All values here come from ChEMBL document CHEMBL1146078.
